# Assayed system: Aurora-2 (Aurora A) (Homo sapiens, UniProt O14965)
# Sequence (O14965 1-403): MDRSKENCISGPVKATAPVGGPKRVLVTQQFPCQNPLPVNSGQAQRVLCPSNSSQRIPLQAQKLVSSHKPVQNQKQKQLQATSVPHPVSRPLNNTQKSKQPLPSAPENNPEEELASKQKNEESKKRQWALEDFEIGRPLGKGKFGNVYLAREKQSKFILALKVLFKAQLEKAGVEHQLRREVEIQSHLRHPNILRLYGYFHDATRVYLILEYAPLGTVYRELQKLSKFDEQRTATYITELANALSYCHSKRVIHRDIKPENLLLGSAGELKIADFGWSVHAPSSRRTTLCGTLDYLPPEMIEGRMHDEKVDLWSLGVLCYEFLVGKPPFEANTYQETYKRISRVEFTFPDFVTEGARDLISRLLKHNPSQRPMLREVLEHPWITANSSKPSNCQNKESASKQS
# Protocol details: Aurora-2 (Aurora A) Inhibition Assay (coupled enzyme assay)
# Format: biochemical
# Reported conditions: read-out: Aurora A Ki
Please assign n whenever Ki is at or above 2 nM, and y whenever it is below.

As a guide, the following entries are already answered.
Cc1cc(Nc2cc(N3CCC(N4CCCC4)CC3)nc(Sc3ccc4ccccc4c3)n2)[nH]n1 [Compound 33] | n
CCC(=O)Nc1ccc(Sc2nc(Nc3cc(C)n[nH]3)cc(N3CCC(N4CCCC4)CC3)n2)cc1 [Compound 7] | n
CCC(=O)Nc1ccc(Sc2nc(Nc3cc(C)n[nH]3)cc(N3CCC(O)(C(C)(C)C)C3)n2)cc1 (stereo not drawn) [Compound 27] | y
CCC(=O)Nc1ccc(Sc2nc(Nc3cc(C)n[nH]3)cc(N3CC4CN(C(C)C)CC4C3)n2)cc1 (stereo not drawn) [Compound 19] | n
CCC(=O)Nc1ccc(Sc2nc(Nc3cc(C)n[nH]3)cc(N3CC[C@H](N4CCCC4)C3)n2)cc1 [Compound 16] | n

Problem: Item CCC(=O)Nc1ccc(Sc2nc(Nc3cc(C)n[nH]3)cc(N3CC(O)(C(C)C)C3)n2)cc1 [Compound 30] : Ki beneath 2 nM, strictly?
Result: y

Problem: # check: Ki < 2 nM for CCC(=O)Nc1ccc(Sc2nc(Nc3cc(C4CC4)n[nH]3)cc(N3CCC(N4CCCC4)CC3)n2)cc1 [Compound 18]
Result: n

Problem: Determine whether this compound shows Ki lower than 2 nM (ties excluded): C#CC(C)(C)N1CCN(c2cc(Nc3cc(C)n[nH]3)nc(Sc3ccc(NC(=O)CC)cc3)n2)CC1 [Compound 6]
Result: y
